Value source: patent US20230293526A1

Test system: cancer cell lines
Protocol summary: Cancer cell proliferation activity of representative nucleosides, CellTiterGlo 72 h (Example 7, Tables 8 and 9)
Type: cell-based
Test conditions: Homo sapiens, NCI-H292, 72 h, NCIH292, lung, 72 h
Protocol: Dose response relationships on cell proliferation was assessed for representative nucleosides on cancer cell lines. […] After incubation for 72 h at 37° C. at 5% or 10% CO2 dependent on the medium, cell plates were equilibrated to room temperature for one hour, CellTiterGlo reagent (Promega) was added and luminescence was measured approximately an hour later using a luminometer. […]
Readout name: log10(IC50) (log10 of the value in nM)

Input smiles	Assay result
CC[C@]1(CO)O[C@@H](n2cnc3c(N)nc(N)nc32)C[C@@H]1O	3.72
N#C[C@]1(CO)O[C@@H](n2ccc(N)nc2=O)C[C@@H]1O	2.90
C[C@]1(CO)O[C@@H](n2ccc(N)nc2=O)C[C@@H]1O	2.45
C#C[C@]1(CO)O[C@@H](n2cnc3c(=O)[nH]c(N)nc32)C[C@@H]1O	3.03
C#C[C@]1(CO)O[C@@H](n2ccc(N)nc2=O)C[C@@H]1O	3.29
CC[C@]1(CO)O[C@@H](n2ccc(N)nc2=O)C[C@@H]1O	3.66

* * *

System: SKBR3
Protocol summary: Cell proliferation Ex.3
Type: cell-based
Test conditions: Homo sapiens, SK-BR-3; SKBR3, 168 h
pIC50: −log10 of the molar value.

Input smiles	Target or system	pIC50
C#C[C@]1(CO)O[C@@H](n2cc(F)c(N)nc2=O)C[C@@H]1O	SKBR3	6.43

* * *

Tested on: PC3
Protocol summary: Cell proliferation Ex.3
Type: cell-based
Test conditions: Homo sapiens, PC-3; PC3, 72 h
pIC50: −log10 of the molar value.
Readout name: pIC50

Molecule	Readout name	Assay result
C#C[C@]1(CO)O[C@@H](n2cc(F)c(N)nc2=O)C[C@@H]1O [compound 9]	pIC50	< 5.00

* * *

Test system: CLS439
Protocol summary: Cell proliferation Ex.3
Format: cell-based
Test conditions: CLS439, 168 h
pIC50: −log10 of the molar value.

Compound	pIC50
C#C[C@]1(CO)O[C@@H](n2cc(F)c(N)nc2=O)C[C@@H]1O [compound 9]	< 5.00

* * *

System: human LINE-1
Protocol summary: Human LINE-1 (L1) retrotransposition dual-luciferase reporter assay in HeLa cells
Assay type: cell-based
Test conditions: Homo sapiens, 72 hours, read-out: Human LINE-1 IC50 (Human L1 activity inhibition)
pIC50: −log10 of the molar value.
Readout name: pIC50

Compound	Target or system	Assay result
CC(C)OC(=O)[C@H](C)N[P@](=O)(CO[C@H](C)Cn1cnc2c(N)ncnc21)Oc1ccccc1 [Tenofovir Alafenamide (TAF), Tenofovir Alafenamide, reference compound]	human LINE-1	8.00

* * *

// IC50 lookup, one value per entry
Test system: cancer cell lines
Protocol summary: Cancer cell proliferation activity of representative nucleosides, CellTiterGlo 72 h (Example 7, Tables 8 and 9)
Format: cell-based
Test conditions: 72 h, T24, 72 h (Table 9)

Compound	Target or system	IC50
C#C[C@]1(CO)O[C@@H](n2cnc3c(N)nc(F)nc32)C[C@@H]1O [Islatravir (EFdA), Islatravir, reference compound]	cancer cell lines	2680 nM
Nc1nc(=O)n([C@@H]2C=C[C@H](CO)O2)cc1F [Elvucitabine, reference compound]	cancer cell lines	> 50000 nM
Cc1cn([C@H]2C[C@H](O)[C@@](C#N)(CO)O2)c(=O)[nH]c1=O	cancer cell lines	3010 nM
Nc1ccn([C@H]2C[C@H](O)[C@](CO)(CF)O2)c(=O)n1	cancer cell lines	290 nM
